# Target entity: KRas G12C (Homo sapiens, UniProt P01116, G12C)
# Construct: Biotinylated KRas (corresponding to amino acids 1-169, produced at Accelegan Inc.); biotin (biotinylated); purchased Accelegan Inc
# Sequence (P01116 1-169 isoform P01116-2 G12C): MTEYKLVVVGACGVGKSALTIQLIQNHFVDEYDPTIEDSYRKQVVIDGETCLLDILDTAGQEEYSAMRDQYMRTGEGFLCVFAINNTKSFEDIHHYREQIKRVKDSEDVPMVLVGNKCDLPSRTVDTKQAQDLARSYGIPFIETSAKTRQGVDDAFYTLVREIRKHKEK
# Assay summary: KRas binding assay, TR-FRET displacement of Cy5 labelled tracer
# Assay context: 60-minute incubation at room temperature, 1% DMSO, pH 7.5
Label 1 when IC50 < 60 nM; otherwise -1.

compound="CC(=O)N(C)C(=O)CCCN(C)c1nc(OC[C@@]23CCCN2C[C@H](F)C3)nc2c(F)c(-c3ccc(F)c4sc(N)c(C#N)c34)c(Cl)cc12 (atropisomer, axis not shown; (aS)) [Example 260]" category_label=1
compound="N#Cc1c(N)sc2c(F)ccc(-c3c(Cl)cc4c(N5CCN(C(=O)n6ccnc6)CC5)nc(OC[C@@]56CCCN5C[C@H](F)C6)nc4c3F)c12 [Example 231]" category_label=1
compound="Cc1ccn(C(=O)CCCCNc2nc(OC[C@@]34CCCN3C[C@H](F)C4)nc3c(F)c(-c4ccc(F)c5sc(N)c(C#N)c45)c(Cl)cc23)n1 [Example 262]" category_label=1
compound="CCc1c(F)ccc2cc(O)cc(-c3ncc4c(N5CCC(C(=O)Nc6ccccn6)CC5)nc(OC[C@@]56CCCN5C[C@H](F)C6)nc4c3F)c12 [Example 153]" category_label=-1
compound="CCc1c(F)ccc2cc(O)cc(-c3ncc4c(N5CCC(C(=O)n6ccc(C)n6)CC5)nc(OC[C@@]56CCCN5C/C(=C\\F)C6)nc4c3F)c12 [Example 70]" category_label=1

###

# Target entity: KRas WT (Homo sapiens, UniProt P01116)
# Construct: Biotinylated KRas (corresponding to amino acids 1-169, produced at Accelegan Inc.); biotin (biotinylated); purchased Accelegan Inc
# Sequence (P01116 1-169 isoform P01116-2): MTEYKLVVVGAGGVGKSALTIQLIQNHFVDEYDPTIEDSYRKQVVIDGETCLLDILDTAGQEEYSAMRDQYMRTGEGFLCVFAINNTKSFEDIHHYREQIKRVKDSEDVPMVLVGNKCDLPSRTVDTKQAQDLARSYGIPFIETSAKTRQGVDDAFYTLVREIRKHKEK
# Assay summary: KRas binding assay, TR-FRET displacement of Cy5 labelled tracer
# Assay context: 60-minute incubation at room temperature, 1% DMSO, pH 7.5
Assay readout: IC50 (nM)

compound="O=C(Oc1ccccc1F)C1CCCN(c2nc(OCC34CCCN3CCC4)nc3c(F)c(-c4cccc5cccc(F)c45)ncc23)C1 (stereo not drawn) [Example 52]" assay_readout=IC50 result=20200
compound="CCc1c(F)ccc2cc(O)cc(-c3ncc4c(N5CC[C@@H](C(=O)n6ccc(C)n6)[C@H](C)C5)nc(OC[C@@]56CCCN5C[C@H](F)C6)nc4c3F)c12 [Example 71]" assay_readout=IC50 result=2090
compound="COCCN(C(C)=O)C(=O)C1CCN(c2nc(OC[C@@]34CCCN3C[C@H](F)C4)nc3c(F)c(-c4ccc(F)c5sc(N)c(C#N)c45)c(Cl)cc23)CC1 [Example 305]" assay_readout=IC50 result=21
compound="CCc1c(F)ccc2cc(O)cc(-c3ncc4c(N5CC6CC(C(=O)N(C)C(C)=O)CC6C5)nc(OC[C@@]56CCCN5C[C@H](F)C6)nc4c3F)c12 (stereo partly drawn) [Example 279]" assay_readout=IC50 result=332
compound="CCc1c(F)ccc2cc(O)cc(-c3ncc4c(N5CCC(C(=O)n6ccc(C)n6)CC5)nc(OC[C@@]56CCCN5C[C@H](F)C6)nc4c3F)c12 [Example 1]" assay_readout=IC50 result=63
compound="CCc1c(F)ccc2cc(O)cc(-c3ncc4c(N5CCC(C(=O)Oc6ccc(F)c(F)c6)CC5)nc(OC[C@@]56CCCN5C[C@H](F)C6)nc4c3F)c12 [Example 40]" assay_readout=IC50 result=729
compound="N#Cc1c(N)sc2c(F)ccc(-c3c(Cl)cc4c(N5CCN(S(=O)(=O)n6cncn6)CC5)nc(OC[C@@]56CCCN5C[C@H](F)C6)nc4c3F)c12 [Example 186]" assay_readout=IC50 result=32
compound="CN(CCCC(=O)N(C)c1ccccn1)c1nc(OC[C@@]23CCCN2C[C@H](F)C3)nc2c(F)c(-c3ccc(F)c4sc(N)c(C#N)c34)c(Cl)cc12 [Example 200]" assay_readout=IC50 result=5
compound="O=C(Nc1ccccn1)C1CCN(c2nc(OCC34CCCN3CCC4)nc3c(F)c(-c4cccc5cccc(F)c45)ncc23)CC1 [Example 3]" assay_readout=IC50 result=649
